Ref: ChEMBL document CHEMBL3988442

I'd be grateful if you could share measured Percent Effect for these entries.
System: Leishmania donovani
Protocol Summary: Leishmania intramacrophage assay
Assay type: functional, organism-based
Design: scale not given: in the data most compounds retested in dose-response had high values
Experimental Parameters: 30.3 µM; […]
About 1,000 (1.4%) of roughly 69,000 compounds showed an effect of 50% or more. The list comes from a sample in which strong results are over-represented; it also holds close analogues and randomly drawn compounds.

Enquiry: Look at this compound and give its reported Percent Effect. Cc1nn(C)c(C)c1C1CCCN1c1ncnc2sccc12 (stereo unspecified)
Return: 33.23%

Enquiry: Same thing, different compound: c1ccc(-c2nc3c(c(NCCn4cccc4)n2)CCNCC3)nc1
Return: 4.707%

Enquiry: # repeat for COCc1ncn(Cc2nc(-c3ccc(OC)cc3F)oc2C)n1
Return: -35.79%

Enquiry: Same read-out for Cc1nc2c(c(NCc3nc4ccccc4s3)n1)CCNCC2 ?
Return: 11.81%

Enquiry: Again, but for Cc1nc2c(c(NCc3cc4ccccc4s3)n1)CCNCC2
Return: 99.76%

Enquiry: Lookup CNCc1cc(F)ccc1Oc1ccc(Cl)cc1
Return: -3.595%

Enquiry: // same read-out, input: COc1c(CNC2CCCOc3ccc(F)cc32)c(C)nn1C.Cl (stereo unspecified)
Return: 19.28%

Enquiry: Cool, now CCOc1ccccc1C(N)CC(C)C (stereo unspecified)
Return: 19.23%

Enquiry: Then COCCN(C)C[C@@H]1CN(C(=O)c2cccc(C#N)c2)C[C@@H]1CO ?
Return: -5.773%

Enquiry: Consider next the compound CCCOc1ccccc1C(N)CC(C)C (stereo unspecified) in the same way.
Return: 24.69%

Enquiry: Same question, c1ccc(-c2nc3c(c(NCCn4ccnn4)n2)CCNCC3)nc1 this time
Return: 12.83%

Enquiry: How about CC(C)COc1ccccc1C(N)CC(C)C (stereo unspecified) ?
Return: 23.51%

Enquiry: And for CC(C)C[C@H](N)COc1cccc(F)c1Oc1ccccc1 ?
Return: 56.67%

Enquiry: For CN(CCc1noc(C2CC2)n1)C(=O)C1(N2CCCC2)CCCC1 then?
Return: 28.86%

Enquiry: For Cc1nc2c(c(NCC3Cc4ccccc4CN3C)n1)CCNCC2 (stereo unspecified) then?
Return: 11.22%

Enquiry: Please give the result for Cc1cnc(N2CC[C@@H]3OC(COCC(=O)N(C)C)CC[C@@H]32)nc1.O=C(O)C(F)(F)F (stereo partly specified) too.
Return: 4.675%
